System: B16-F10
testDetails: Antiproliferative activity against mouse B16F10 cells after 48 hrs by MTT assay
Format: functional, cell-based
experimentalContext: B16-F10, 48 h
outcomeMeasure: IC50 (µM)

Worked cases, IC50 given:
| molecule | resultValue |
| --- | --- |
| CC(=O)N1N=C(c2ccc3ccccc3c2)OC1c1ccccc1O (stereo unspecified) | 2.58 |
| CC(=O)N1N=C(c2ccc3ccccc3c2)OC1c1ccsc1 (stereo unspecified) | 8.56 |
| CC(=O)N1N=C(c2ccc3ccccc3c2)OC1c1ccc(OCc2ccccc2)cc1 (stereo unspecified) | 8.08 |

[a] CC(=O)N1N=C(c2ccc3ccccc3c2)OC1c1ccccn1 (stereo unspecified)
[b] CC(=O)N1N=C(c2ccc3ccccc3c2)OC1c1ccc(Br)cc1 (stereo unspecified)
[c] CC(=O)N1N=C(c2ccc3ccccc3c2)OC1c1ccc(Cl)cc1 (stereo unspecified)
[d] CC(=O)N1N=C(c2ccc3ccccc3c2)OC1c1cccc(F)c1 (stereo unspecified)
Q. List these items ordered by IC50, big to small. Could you list the labels in the order requested?
A. a, b, c, d
